Origin of values: ChEMBL document CHEMBL1240375

system: Staphylococcus aureus; assay: Antimicrobial activity against Staphylococcus aureus 25 transformant carrying plasmid pKKS25 and expressing erm(T), dfrKtet(L), tet(K), tet(M), mecA and blaZ genes by broth microdilution method
API: label(entry) gives Met if the entry's MIC is strictly smaller than 4 µg/mL; on equality or larger values it gives Not met.

compound	assigned-class
C=C[C@]1(C)C[C@@H](OC(=O)CSCCN(CC)CC)[C@]2(C)[C@H](C)CC[C@]3(CCC(=O)[C@H]32)[C@@H](C)[C@@H]1O	Met
CC1(C)S[C@@H]2[C@H](NC(=O)Cc3ccccc3)C(=O)N2[C@H]1C(=O)O	Not met
COc1cc(Cc2cnc(N)nc2N)cc(OC)c1OC	Not met
O=C(N[C@H](CO)[C@H](O)c1ccc([N+](=O)[O-])cc1)C(Cl)Cl	Not met

Given the entry `CCC[C@@H]1C[C@@H](C(=O)N[C@@H]([C@H]2O[C@H](SC)[C@H](O)[C@@H](O)[C@H]2O)[C@H](C)Cl)N(C)C1` , would its reported MIC be below 4 µg/mL?
Not met

Would you mind doing `C=C[C@]1(C)C[C@@H](OC(=O)CSC(C)(C)CNC(=O)[C@H](N)C(C)C)[C@]2(C)[C@H](C)CC[C@]3(CCC(=O)[C@H]32)[C@@H](C)[C@@H]1O` as well?
Met

What do we get for `CN[C@@H]1[C@H](O)[C@H](NC)[C@H]2O[C@@]3(O)C(=O)C[C@@H](C)O[C@H]3O[C@@H]2[C@H]1O` ?
Not met

Next compound: `CCN1CCN(c2cc3c(cc2F)c(=O)c(C(=O)O)cn3C2CC2)CC1`
Met

Can you handle `CC(=O)NC[C@H]1CN(c2ccc(N3CCOCC3)c(F)c2)C(=O)O1` next?
Met

Another: `CN(C)[C@@H]1C(O)=C(C(N)=O)C(=O)[C@@]2(O)C(O)=C3C(=O)c4c(O)cccc4[C@@](C)(O)[C@H]3C[C@@H]12`
Not met

Continue with CC[C@H]1OC(=O)C[C@@H](O)[C@H](C)[C@@H](O[C@@H]2O[C@H](C)[C@@H](O[C@H]3C[C@@](C)(O)[C@@H](O)[C@H](C)O3)[C@H](N(C)C)[C@H]2O)[C@@H](CC=O)C[C@@H](C)C(=O)/C=C/C(C)=C/[C@@H]1CO[C@@H]1O[C@H](C)[C@@H](O)[C@@H](OC)[C@H]1OC.O=C(O)C(O)C(O)C(=O)O [TYLOCIN TARTARATE]
Not met

What do we get for `Cc1onc(-c2ccccc2)c1C(=O)N[C@@H]1C(=O)N2[C@@H]1SC(C)(C)[C@@H]2C(=O)O` ?
Not met

One more compound: `CC[C@H]1OC(=O)[C@H](C)[C@@H](O[C@H]2C[C@@](C)(OC)[C@@H](O)[C@H](C)O2)[C@H](C)[C@@H](O[C@@H]2O[C@H](C)C[C@H](N(C)C)[C@H]2O)[C@](C)(O)C[C@@H](C)C(=O)[C@H](C)[C@@H](O)[C@]1(C)O`
Not met

---

Items are presented alongside their recorded log10 MIC.
tested on: Staphylococcus aureus; assay: Antimicrobial activity against Staphylococcus aureus RN4220 transformant carrying plasmid pKKS25 and expressing erm(T), dfrK and tet(L) genes by broth microdilution method; format: functional
Give log10 of MIC, with MIC taken in µg/mL.

compound	log10 MIC
O=C(N[C@H](CO)[C@H](O)c1ccc([N+](=O)[O-])cc1)C(Cl)Cl	0.60

Can you share its log10 MIC? I mean this compound: `CCN1CCN(c2cc3c(cc2F)c(=O)c(C(=O)O)cn3C2CC2)CC1`
-0.60

Then what about the compound `Cc1onc(-c2ccccc2)c1C(=O)N[C@@H]1C(=O)N2[C@@H]1SC(C)(C)[C@@H]2C(=O)O` ?
-1.22

---

Collected MIC values appear next to each entry.
system: Staphylococcus aureus; test: Antimicrobial activity against Staphylococcus aureus RN4220 transformant carrying plasmid pKKS25 and expressing erm(T), dfrK and tet(L) genes by broth microdilution method; type: functional
Use µg/mL as the unit, but write only the number.

Take a look at these entries with their results.
compound	display-unit	value
CN[C@@H]1[C@@H](O[C@H]2O[C@H](CO)[C@@H](N)[C@H](O)[C@H]2O)OC2C[C@@H](N)[C@@H](O[C@H]3[C@H](O)[C@@H](O)[C@H](N)C[C@@H]3N)OC2[C@@H]1O (some centres undefined)	µg/mL	1
CN(C)[C@@H]1C(O)=C(C(N)=O)C(=O)[C@@]2(O)C(O)=C3C(=O)c4c(O)cccc4[C@@](C)(O)[C@H]3C[C@@H]12	µg/mL	32
C=C[C@]1(C)C[C@@H](OC(=O)CSCCN(CC)CC)[C@]2(C)[C@H](C)CC[C@]3(CCC(=O)[C@H]32)[C@@H](C)[C@@H]1O	µg/mL	0.12

Find the recorded MIC belonging to `C=C[C@]1(C)C[C@@H](OC(=O)CSC(C)(C)CNC(=O)[C@H](N)C(C)C)[C@]2(C)[C@H](C)CC[C@]3(CCC(=O)[C@H]32)[C@@H](C)[C@@H]1O` and report it.
0.03

Do the same for `CC1(C)S[C@@H]2[C@H](NC(=O)[C@H](N)c3ccccc3)C(=O)N2[C@H]1C(=O)O` please
0.06

---

system: Staphylococcus aureus; assay: Antimicrobial activity against Staphylococcus aureus RN4220 transformant carrying plasmid pKKS25 and expressing erm(T), dfrK and tet(L) genes by broth microdilution method; type: functional
Reported MIC by item:

Worked examples follow.
compound	MIC
CC[C@H]1OC(=O)[C@H](C)[C@@H](O[C@H]2C[C@@](C)(OC)[C@@H](O)[C@H](C)O2)[C@H](C)[C@@H](O[C@@H]2O[C@H](C)C[C@H](N(C)C)[C@H]2O)[C@](C)(O)C[C@@H](C)C(=O)[C@H](C)[C@@H](O)[C@]1(C)O	≥ 128 µg/mL
COc1cc(Cc2cnc(N)nc2N)cc(OC)c1OC	≥ 128 µg/mL
CCC[C@@H]1C[C@@H](C(=O)N[C@@H]([C@H]2O[C@H](SC)[C@H](O)[C@@H](O)[C@H]2O)[C@H](C)Cl)N(C)C1	≥ 64 µg/mL

Below: the item to evaluate.
Quick one: MIC for CC[C@H]1OC(=O)C[C@@H](O)[C@H](C)[C@@H](O[C@@H]2O[C@H](C)[C@@H](O[C@H]3C[C@@](C)(O)[C@@H](O)[C@H](C)O3)[C@H](N(C)C)[C@H]2O)[C@@H](CC=O)C[C@@H](C)C(=O)/C=C/C(C)=C/[C@@H]1CO[C@@H]1O[C@H](C)[C@@H](O)[C@@H](OC)[C@H]1OC.O=C(O)C(O)C(O)C(=O)O [TYLOCIN TARTARATE] ?
≥ 64 µg/mL
